# experiment summary: Toxicity liver stage against HepG2, at 10uM
# Format: cell-based
# Design: test concentration 10 uM, cell line HepG2-A16-CD81EGFP
# condition parameters: human, HepG2-A16-CD81EGFP cells; read-out: INHIBITION
Please provide measured cytotoxicity at 10 µM for the entries that follow.
A number alone suffices; assume %.

For record O=C(c1cncc2ccccc12)N1CCC[C@@H]1CO the listed cytotoxicity at 10 µM is 2.37

For record CN1CCC(C(=O)N2CCN(Cc3cccc(Cl)c3)CC2)CC1=O (stereo not drawn) the listed cytotoxicity at 10 µM is 5.44

For record CN(Cc1nnc(C2CC2)o1)Cc1ccccc1N1CCOCC1 the listed cytotoxicity at 10 µM is -7.83

For record CCC(C)N(Cc1c[nH]c(C)n1)Cc1ccccc1Cl (stereo not drawn) the listed cytotoxicity at 10 µM is 24.2

For record CN(Cc1ccccc1)c1cnn(CC2COCCO2)c(=O)c1 (stereo not drawn) the listed cytotoxicity at 10 µM is -12.4

For record COc1ccc(C2=Nn3c(CCCN)nnc3-c3ccccc3C2)cc1 the listed cytotoxicity at 10 µM is 3.07

For record Cc1ncsc1CN1CC2(CCCC2)CC1=O the listed cytotoxicity at 10 µM is -0.369

For record CC(C)c1nc(N2CCC(N3CCCC(O)C3)CC2)c2cnn(C)c2n1 (stereo not drawn) the listed cytotoxicity at 10 µM is -127

For record Cn1cc(C2CC(=O)NC23CCN(Cc2nccs2)CC3)cn1 (stereo not drawn) the listed cytotoxicity at 10 µM is 1.06

For record Cn1nc(CNC(=O)CC#N)c2c1CN(C(N)=O)CC2 the listed cytotoxicity at 10 µM is 3.8

For record CCc1cnc(C(C)NC(=O)N2CCCN(CC(F)F)CC2)s1 (stereo not drawn) the listed cytotoxicity at 10 µM is -0.423

For record Cc1n[nH]c(C)c1-c1nccnc1CC1CCNC1 (stereo not drawn) the listed cytotoxicity at 10 µM is -4.96

For record Cc1cc2c(cc1C(=O)N1CCC3(CC(=O)NC3=O)C1)OCCO2 (stereo not drawn) the listed cytotoxicity at 10 µM is 7.15

For record CN(CCCc1ccccc1)C(=O)c1ccccc1NCC(=O)O the listed cytotoxicity at 10 µM is -6.96

For record CCc1cc(=O)n(CCNC(=O)Nc2ccc(OC(F)(F)F)cc2)cn1 the listed cytotoxicity at 10 µM is -0.898

For record CN1CCCN(C(=O)NCc2csc(Br)c2)CC1 the listed cytotoxicity at 10 µM is -5.85

For record CSC(C)C(=O)Nc1ccnn1-c1ccccc1C (stereo not drawn) the listed cytotoxicity at 10 µM is -12.5

For record N#Cc1ccc(NC2CCN(Cc3ccccn3)CC2)c(F)c1 the listed cytotoxicity at 10 µM is 0.109

For record c1cnnc(NCC2CN(CCn3cncn3)CCO2)c1 (stereo not drawn) the listed cytotoxicity at 10 µM is -3.16

For record CC(C)=CCN1CCN(C(=O)C2CCS(=O)(=O)C2)CC1 (stereo not drawn) the listed cytotoxicity at 10 µM is -90.5

For record Cc1nn(C)c2cn(CC(=O)N3CCc4ccccc4C3)nc12 the listed cytotoxicity at 10 µM is 8.41

For record CN(CCc1ccccn1)C(=O)C(O)c1ccc(Br)cc1 (stereo not drawn) the listed cytotoxicity at 10 µM is -0.779

For record CN(C)C[C@@H]1CN(Cc2ccccc2C#N)C[C@@H]1CO the listed cytotoxicity at 10 µM is -1.56

For record COCCn1ccnc1C1CCCN(C(=O)c2ccccc2C#N)C1 (stereo not drawn) the listed cytotoxicity at 10 µM is -0.675

For record O=C(c1ccc(-c2cc[nH]n2)cc1)N1CC[C@H](CO)[C@H](O)C1 the listed cytotoxicity at 10 µM is 4.52

For record CS(=O)(=O)N1C[C@@H]2OCC(=O)N(CC3CCC3)[C@@H]2C1 the listed cytotoxicity at 10 µM is 8.94

For record Cc1ccc(CN2CC[C@H](c3nnc(COc4ccc(F)cc4)o3)C2)o1 the listed cytotoxicity at 10 µM is 5.2

For record COc1ccc(CCN2CCN(C(=O)c3scnc3C)CC2)cc1 the listed cytotoxicity at 10 µM is -8.31

For record CCc1nnc2n1CCN(C(=O)Cc1csc(-c3ccco3)n1)C2 the listed cytotoxicity at 10 µM is -8.7

For record Cc1nc(CCNC(=O)NC(C)c2ccc3c(c2)OCCO3)cs1 (stereo not drawn) the listed cytotoxicity at 10 µM is -1.18

For record COCCC(=O)N1CCN(CCN(C)C)c2ncccc2C1 the listed cytotoxicity at 10 µM is -4.11

For record CC(O)CN(C)C(=O)CCNC(=O)OC(C)(C)C (stereo not drawn) the listed cytotoxicity at 10 µM is -5.32

For record Cc1cc(C)nc(N2CC=C[C@H]2C(=O)NCc2ccc3c(c2)OCO3)n1 the listed cytotoxicity at 10 µM is 0.711

For record COCC(O)CN1CCC(NC(=O)c2cccc(C)c2)CC1 (stereo not drawn) the listed cytotoxicity at 10 µM is 1.44

For record Cc1noc([C@]23COC[C@H]2CN(C(=O)Cc2ccsc2)C3)n1 the listed cytotoxicity at 10 µM is -95.9

For record CN(C)c1ncnc2c1CCN(Cc1nccs1)CC2 the listed cytotoxicity at 10 µM is 6.1

For record Cc1ccc(-c2nnc(CN3CCOC(Cn4cccn4)C3)o2)cc1 (stereo not drawn) the listed cytotoxicity at 10 µM is -8.06

For record Oc1cccc(-c2cc(CC3(N(CC4CC4)CC4CC4)COC3)no2)c1 the listed cytotoxicity at 10 µM is 6.15

For record Cc1cccc(C)c1OC1CN(Cc2cnc(N3CCOCC3)nc2)C1 the listed cytotoxicity at 10 µM is 3.47

For record CC(C)Cc1cc(C(=O)N2CCC(Oc3cccnc3)CC2)n(C)n1 the listed cytotoxicity at 10 µM is -0.423

For record CC(C)OCC(=O)Nc1ccc(Oc2ccc3c(c2)OCO3)nc1 the listed cytotoxicity at 10 µM is -13.1

For record Cc1ccc(N2CCC3(CCN(C(=O)c4ccoc4)CC3)CC2)nn1 the listed cytotoxicity at 10 µM is -0.355

For record CN1C[C@@H](NC(=O)c2cc(F)cc(F)c2)C[C@H]1C(=O)NCc1ncc[nH]1 the listed cytotoxicity at 10 µM is -6.25

For record CCN1C(=O)CCC12CCCN(Cc1ccc(F)cc1)CC2 (stereo not drawn) the listed cytotoxicity at 10 µM is -0.861

For record Cc1nc(N(C)C)nc2c1COCC21CCN(C(=O)NCC(C)C)C1 (stereo not drawn) the listed cytotoxicity at 10 µM is 7.63

For record CC(CCS(C)(=O)=O)NC(=O)NCc1ccc2ccccc2c1 (stereo not drawn) the listed cytotoxicity at 10 µM is -137

For record Cc1nc(-c2cc(F)c3c(c2)CC(CN)O3)c[nH]1 (stereo not drawn) the listed cytotoxicity at 10 µM is 9.15

For record Cc1cnc2n(c1=O)CC(C(=O)NC1CC1)CS2 (stereo not drawn) the listed cytotoxicity at 10 µM is -18.3

====

# experiment summary: Toxicity liver stage against HepG2, at 10uM
# Format: cell-based
# Set-up: test concentration 10 uM, cell line HepG2-A16-CD81EGFP
# condition parameters: human, HepG2-A16-CD81EGFP cells; read-out: INHIBITION
measured attribute: cytotoxicity at 10 µM (%)
A number alone suffices; assume %.

For record Cn1cc(-c2ncc3c(c2C(=O)O)CCN(Cc2ccccn2)C3)cn1 the listed cytotoxicity at 10 µM is -107

For record CCn1cc(Br)c(C(=O)NCc2cccnc2)n1 the listed cytotoxicity at 10 µM is -10.1

For record COCCNC(=O)Nc1cccc2c1CCN(S(C)(=O)=O)C2 the listed cytotoxicity at 10 µM is 7.37

For record CC(NC(=O)CSCC(=O)Nc1ccccc1)c1ccccc1 (stereo unspecified) the listed cytotoxicity at 10 µM is -6.17

For record C[C@H]1C[C@@H]2CCN(Cc3nccs3)C[C@H]2O1 the listed cytotoxicity at 10 µM is -3

For record CCOCC1CN(C(=O)c2ccoc2)Cc2nn(C)cc21 (stereo unspecified) the listed cytotoxicity at 10 µM is 0.254

====

Please provide measured cytotoxicity at 10 µM for the entries that follow.
# experiment summary: Toxicity liver stage against HepG2, at 10uM
# Format: cell-based
# Design: test concentration 10 uM, cell line HepG2-A16-CD81EGFP
# condition parameters: human, HepG2-A16-CD81EGFP cells; read-out: INHIBITION
Output should be the measured figure followed by the unit it is expressed in.

For record Cc1cccc(O[C@H]2COCCN(C3CCC3)C2)n1 the listed cytotoxicity at 10 µM is -4.81%

For record O=c1[nH]c2cn(-c3cccc(Cl)c3)c(=O)n2[nH]1 the listed cytotoxicity at 10 µM is 1.35%

For record CSC(C)(C)CNC(=O)NCc1cccc(-n2ccnc2)c1 the listed cytotoxicity at 10 µM is 32.9%

For record CNC(=O)c1cn[nH]c1C1CCCN1C(=O)c1cccnc1 (centres undefined) the listed cytotoxicity at 10 µM is -23.3%

For record CCOc1cc(C(=O)N2CCCC(c3noc(CC)n3)C2)ccn1 (centres undefined) the listed cytotoxicity at 10 µM is -3.65%

For record CC(C)n1cc(CN2CCCN(C(=O)C(C)n3cccn3)CC2)cn1 (centres undefined) the listed cytotoxicity at 10 µM is -17.9%

For record Cc1cc(C)n(CC2CN(CC(=O)NC3CCCCC3)CCO2)n1 (centres undefined) the listed cytotoxicity at 10 µM is -5.17%

For record COc1ccccc1C(O)CNc1nccc(-c2ccc(C)nc2C)n1 (centres undefined) the listed cytotoxicity at 10 µM is 8.95%

For record CC(C1CC1)N(C)Cc1nnc(-c2ccco2)o1 (centres undefined) the listed cytotoxicity at 10 µM is -2.14%

For record CN(C)CC(=O)N1CCCCC1c1nc(N)ncc1-c1ccccc1 (centres undefined) the listed cytotoxicity at 10 µM is -0.155%

For record CCn1nccc1CN(C)C(=O)Cn1nc(C)cc1C the listed cytotoxicity at 10 µM is 6.18%

For record COc1ccc(OC)c(C(C)NS(=O)(=O)c2cn(C)nc2C)c1 (centres undefined) the listed cytotoxicity at 10 µM is 8.35%

For record CCN1CCN(C(=O)c2cc(-c3cccs3)cs2)CC1 the listed cytotoxicity at 10 µM is 2.93%

For record O=C(CC1C=CCC1)Nc1ncn(CC(=O)N2CCCCCC2)n1 (centres undefined) the listed cytotoxicity at 10 µM is -3.72%

For record O=C1NC(c2ccccc2)=N[C@@]12CC[C@@H]1CN(Cc3ccoc3)C[C@@H]12 the listed cytotoxicity at 10 µM is 5.22%

For record Cc1ccc(OCC(=O)N2CCN[C@H]3CS(=O)(=O)C[C@H]32)cn1 the listed cytotoxicity at 10 µM is -2.7%

For record CN(C)c1ncccc1CNC(=O)c1csc(Br)c1 the listed cytotoxicity at 10 µM is -1.35%

For record O=C1C[C@H]2[C@@H](CCN2C(=O)Cc2ccsc2)N1Cc1cccnc1 the listed cytotoxicity at 10 µM is -0.331%

For record Cc1ccc(C(=O)N(C)Cc2csc(C)n2)c(=O)[nH]1 the listed cytotoxicity at 10 µM is 3.97%

For record Cc1nn(CC(C)C)c(N(C)C)c1CNCc1cccc2c1OCO2 the listed cytotoxicity at 10 µM is -10.2%

For record c1ccc(-c2nnc(CNCCn3cccn3)o2)cc1 the listed cytotoxicity at 10 µM is -10.7%

For record CCn1cc(CN2CCCN(C(=O)CCc3ccccc3)CC2)cn1 the listed cytotoxicity at 10 µM is -7.9%

For record O=C(c1nn(-c2ccccc2F)cc1O)N1CCCCC1 the listed cytotoxicity at 10 µM is 3.36%

For record Cc1ccc(N2CCC(NCc3cnc(C4CCC4)s3)CC2)nc1 the listed cytotoxicity at 10 µM is 6.75%
